Assay: Selectivity index, ratio of CC50 for human mock-infected MT4 cells to EC50 for HIV1 3B harboring reverse transcriptase E138K mutant infected in human MT4 cells
Assay type: toxicity, cell-based
Conditions: MT4 cells (mock-infected for CC50, HIV-1 infected for EC50)
experimental_endpoint: selectivity ratio

[[record]]
sample_smiles = "CCOC(=O)c1ccc(CN2CCC(Nc3nc(Oc4c(C)cc(C#N)cc4C)c4sccc4n3)CC2)cc1"
experimental_endpoint = "selectivity ratio"
result_value = "> 227"

[[record]]
sample_smiles = "Cc1cc(C#N)cc(C)c1Oc1nc(NC2CCN(Cc3cccc(C(N)=O)c3)CC2)nc2ccsc12"
experimental_endpoint = "selectivity ratio"
result_value = "> 3510"

[[record]]
sample_smiles = "Cc1cc(C#N)cc(C)c1Oc1nc(NC2CCN(Cc3ccc(S(N)(=O)=O)cc3)CC2)nc2ccsc12"
experimental_endpoint = "selectivity ratio"
result_value = "> 75800"


* * *

Listing of recorded pEC50 by entry.
System: Human immunodeficiency virus 1
Assay: Antiviral activity against wild type HIV1 3B harboring reverse transcriptase infected in human MT4 cells assessed as protection against virus induced cytotoxicity after 5 days by MTT assay
Assay type: functional, cell-based
Conditions: Human immunodeficiency virus 1, 3B, MT4, 120 h
pEC50: −log10 of the molar value.
experimental_endpoint: pEC50

[[record]]
sample_smiles = "Cc1cc(C)c(Oc2nc(NC3CCN(Cc4ccc(C(N)=O)cc4)CC3)nc3ccsc23)c(C)c1"
experimental_endpoint = "pEC50"
result_value = 8.19

[[record]]
sample_smiles = "Cc1cc(C#N)cc(C)c1Oc1nc(NC2CCN(Cc3ccc(C#N)cc3)CC2)nc2ccsc12"
experimental_endpoint = "pEC50"
result_value = 8.23

[[record]]
sample_smiles = "Cc1cc(C)c(Oc2nc(NC3CCN(Cc4cccc(C(N)=O)c4)CC3)nc3ccsc23)c(C)c1"
experimental_endpoint = "pEC50"
result_value = 7.84

[[record]]
sample_smiles = "Cc1ccccc1CN1CCC(Nc2nc(Oc3c(C)cc(C#N)cc3C)c3sccc3n2)CC1"
experimental_endpoint = "pEC50"
result_value = 8.03

[[record]]
sample_smiles = "Cc1cc(C#N)cc(C)c1Oc1nc(NC2CCN(Cc3ccc(F)cc3)CC2)nc2ccsc12"
experimental_endpoint = "pEC50"
result_value = 8.12

[[record]]
sample_smiles = "Cc1cc(C#N)cc(C)c1Oc1nc(NC2CCN(Cc3ccncc3)CC2)nc2ccsc12"
experimental_endpoint = "pEC50"
result_value = 7.99

[[record]]
sample_smiles = "Cc1cc(C#N)cc(C)c1Oc1nc(NC2CCN(Cc3ccccc3F)CC2)nc2ccsc12"
experimental_endpoint = "pEC50"
result_value = 8.08

